# TESTED_ON: C-C chemokine receptor type 3 (Homo sapiens)
# EXPERIMENT_SUMMARY: Agonist activity at human CCR3 expressed in CHO-K1 cells at 20 uM by PathHunter beta-arrestin assay relative to control
# Type: cell-based
The source made the active and inactive calls. No cut-off for these calls is given here.
RECORDED_ENDPOINT: Activity

Reference set (4 entries):
[
  {
    "STRUCTURE_STRING": "COC(=O)[C@@H]1[C@H]2C[C@@H]3OCc4ccccc4-n4c3c(c3ccccc34)CCN(C#N)C[C@@H]2CC[C@@H]1O",
    "Activity": "inactive"
  },
  {
    "STRUCTURE_STRING": "COC(=O)[C@@H]1[C@H]2C[C@H]3c4[nH]c5ccccc5c4CCN3C[C@@H]2CC[C@@H]1O",
    "Activity": "inactive"
  },
  {
    "STRUCTURE_STRING": "COC(=O)[C@@H]1[C@H]2C[C@@H]3N(CC[C@@]34C(=O)N(c3cncc(OC)n3)c3ccccc34)C[C@@H]2CC[C@@H]1O",
    "Activity": "inactive"
  },
  {
    "STRUCTURE_STRING": "COC(=O)[C@@H]1[C@H]2C[C@@H](OCc3ccc(Br)cc3)c3[nH]c4ccccc4c3CCN(C#N)C[C@@H]2CC[C@@H]1O",
    "Activity": "inactive"
  }
]

Next molecule, please.
Query: Look up Activity for this molecule: COC(=O)[C@@H]1[C@H]2C[C@@H](c3[nH]c4ccccc4c3CCn3cc(-c4cccc(Cl)c4)nn3)N(C#N)C[C@@H]2CC[C@@H]1O
Reply: inactive
